# MIC90 values compiled below
Test system: Aspergillus sydowii
protocol.summary: Antimicrobial activity against Aspergillus sydowii by broth microdilution method
Format: functional
*1 amine or outer side, *2 acyl side, *3 side chain or, on linkers, in order; H or OH if unused. Where a SMILES comes first, the peptide text is derived from it. Bridges are numbered along the chain shown (N, C = ends). [ ]: non-standard residue; d: D form. The star is where a group is joined. hTyr(3S-OH,4S-OH,3'-OSO3H) = N[C@H](C(=O)O)[C@H](O)[C@@H](O)c1ccc(O)c(OS(=O)(=O)O)c1; pTerphenylCO(4''-OnC5H11) = CCCCCOc1ccc(-c2ccc(-c3ccc(C(=O)*)cc3)cc2)cc1; Orn(4R-OH,5R-OH) = O=C([C@H](C[C@@H](O)[C@@H](O)N[*:3])N[*:1])[*:2]; hTyr(3S-OH,4S-OH) = N[C@H](C(=O)O)[C@H](O)[C@@H](O)c1ccc(O)cc1; Pro(3S-OH,4S-Me) = C[C@H]1CN[C@H](C(=O)O)[C@H]1O; X1 = CCCCCOc1ccc(-c2cc(-c3ccc(C(=O)*)cc3)no2)cc1; Gln(3R-OH) = NC(=O)C[C@@H](O)[C@H](N)C(=O)O; Hyp = O=C(O)[C@@H]1C[C@@H](O)CN1

Below, 5 compounds whose answers are already recorded.
## Input Quickly give me recorded MIC90 for CCCCCOc1ccc(-c2cc(-c3ccc(C(=O)N[C@H]4C[C@@H](O)[C@@H](O)NC(=O)[C@@H]5[C@@H](O)[C@@H](C)CN5C(=O)[C@H]([C@H](O)CC(N)=O)NC(=O)[C@H]([C@H](O)[C@@H](O)c5ccc(O)c(OS(=O)(=O)O)c5)NC(=O)[C@@H]5C[C@@H](O)CN5C(=O)[C@H]([C@@H](C)O)NC4=O)cc3)no2)cc1 [MICAFUNGIN] (X1-[Orn(4R-OH,5R-OH)]T[Hyp][hTyr(3S-OH,4S-OH,3'-OSO3H)][Gln(3R-OH)][Pro(3S-OH,4S-Me)]; lactam 1-C)
## Output 0.03 µg/mL

## Input Tell me measured MIC90 for CC[C@H](C)C[C@H](C)CCCCCCCCC(=O)N[C@H]1C[C@@H](O)[C@@H](NCCN)NC(=O)[C@@H]2[C@@H](O)CCN2C(=O)[C@H]([C@H](O)CCN)NC(=O)[C@H]([C@H](O)[C@@H](O)c2ccc(O)cc2)NC(=O)[C@@H]2C[C@@H](O)CN2C(=O)[C@H]([C@@H](C)O)NC1=O please.
## Output 1 µg/mL

## Input For the compound CCCCCOc1ccc(-c2ccc(-c3ccc(C(=O)N[C@H]4C[C@@H](O)[C@@H](O)NC(=O)[C@@H]5[C@@H](O)[C@@H](C)CN5C(=O)[C@H]([C@@H](C)O)NC(=O)[C@H]([C@H](O)[C@@H](O)c5ccc(O)cc5)NC(=O)[C@@H]5C[C@@H](O)CN5C(=O)[C@H]([C@@H](C)O)NC4=O)cc3)cc2)cc1 [ANIDULAFUNGIN] ({pTerphenylCO(4''-OnC5H11)}-[Orn(4R-OH,5R-OH)]T[Hyp][hTyr(3S-OH,4S-OH)]T[Pro(3S-OH,4S-Me)]; lactam 1-C) , give its measured MIC90 value.
## Output 0.03 µg/mL

## Input Return MIC90 (reported value) for this compound: C[C@@H]1[C@H](O)[C@@H](C)/C=C/C=C/C=C/C=C/C=C/C=C/C=C/[C@H](O[C@@H]2O[C@H](C)[C@@H](O)[C@H](N)[C@@H]2O)C[C@@H]2O[C@](O)(C[C@@H](O)C[C@@H](O)[C@H](O)CC[C@@H](O)C[C@@H](O)CC(=O)O[C@H]1C)C[C@H](O)[C@H]2C(=O)O
## Output 2 µg/mL

## Input Entry CCC(C)n1ncn(-c2ccc(N3CCN(c4ccc(OCC5COC(Cn6cncn6)(c6ccc(Cl)cc6Cl)O5)cc4)CC3)cc2)c1=O (configuration not stated) needs its MIC90 filled in; supply it.
## Output > 8 µg/mL

***
## Input Dear colleague, please send me the reported MIC90 for CC[C@@H]([C@H](C)O)n1ncn(-c2ccc(N3CCN(c4ccc(OC[C@@H]5CO[C@@](Cn6cncn6)(c6ccc(F)cc6F)C5)cc4)CC3)cc2)c1=O when you can.
## Output 0.5 µg/mL

## Input Annotate the compound C[C@@H](c1ncncc1F)[C@](O)(Cn1cncn1)c1ccc(F)cc1F with its measured MIC90.
## Output 2 µg/mL
